The reported measurements were obtained from PubChem BioAssay (NCI).

# Tested on: K-562 leukemia
# TEST: NCI-60 one-dose screen, 48 h
# MEASUREMENT_PARAMETERS: 10 µM unless noted
About 83,000 compounds went through this panel and 20% of them were active in at least one assay; those are over-represented in the sample as a whole. Activity calls are given as the source filed them. The calls were made as follows: active = growth percent below 10; inactive = the rest.
Thanks in advance; please answer with one of these: yes (1) for active, no (0) for inactive

stdin: Hi, sorry to bother you, what did the test record for Cc1ccc(S(=O)(=O)Oc2ccc3sc4cccc(NCCN(C)C)c4c(=O)c3c2)cc1 ?
stdout: yes (1)

stdin: Call for entry CC(=O)/C(=C/c1ccc([N+](=O)[O-])cc1)C(=O)c1ccccc1 :
stdout: no (0)

stdin: What call does the record list for Cc1ccc2nc(/C(C#N)=C(/CCCO)NC(Cc3ccccc3)C(=O)OCc3ccccc3)[nH]c(=O)c2c1 (configuration not stated) ?
stdout: no (0)

stdin: Identify the outcome logged in this assay for the compound shown: CCOC(=O)/C=C1\S/C(=N\Nc2cc(=O)[nH]c3ccccc23)N(c2ccccc2)C1=O
stdout: no (0)

stdin: // outcome(item) with item = CCOC(=O)c1[nH]c2c(c1C)-c1[nH]c(=O)c(S(=O)(=O)c3ccccc3)cc1SC2
stdout: no (0)

stdin: Field: outcome | Entry: CN(Cc1cc(Br)cc(Br)c1O)Cc1cc(Br)cc(Br)c1O
stdout: no (0)

stdin: Recorded call for CO[C@H](C(=O)[C@@H](O)[C@@H](C)O)[C@@H]1Cc2cc3cc(O[C@H]4C[C@@H](O[C@H]5C[C@@H](O)[C@H](O)C(C)O5)[C@H](O)C(C)(O)O4)cc(O)c3c(O)c2C(=O)[C@H]1O[C@H]1C[C@@H](O[C@H]2C[C@@H](O[C@H]3C[C@@H](OC)[C@H](O)C(C)O3)[C@@H](O)C(C)O2)[C@H](O)C(C)O1 (some centres not stated) ?
stdout: no (0)

====

# System: HCC-2998 colon
# TEST: NCI-60 one-dose screen, 48 h (100 = growth as untreated, 0 = no growth, -100 = all killed)
# MEASUREMENT_PARAMETERS: 10 µM unless noted
Compounds without any hit were thinned out: in the full panel of roughly 83,000, 20% have a hit. The source made the active and inactive calls. Rule for the calls: active = growth percent below 10; inactive = the rest.
OBSERVED_PROPERTY: growth

stdin: State, for HCC-2998 colon, measured growth of the compound listed here: COc1ccc(/C=C(/c2ccccc2)[N+](=O)[O-])c(OC)c1
stdout: -71.4% (active)

stdin: Send back HCC-2998 colon growth of Cc1ccc(C(=O)c2ccc(CC(=O)N=Nc3c(O)[nH]c4ccc(Br)cc34)n2C)cc1 only.
stdout: 124% (inactive)

stdin: Provide HCC-2998 colon growth reading for CC1(C)C(N)=Nc2cc(OCCCN3Cc4ccccc4C3)c(OCC3CC3)cc21 .
stdout: 11.9% (inactive)

stdin: Please report growth with HCC-2998 colon for item CC(=O)Oc1ccc(OC(C)=O)c2ccccc12 .
stdout: 103% (inactive)

stdin: Supply growth measured with HCC-2998 colon for Cc1c(Cl)cccc1C(=O)Nc1nc2c(s1)CN(C(=O)c1ccc(C(F)(F)F)cc1)CC2 .
stdout: 28.4% (inactive)

====

# System: M14 melanoma
# TEST: NCI-60 one-dose screen, 48 h (100 = growth as untreated, 0 = no growth, -100 = all killed)
# MEASUREMENT_PARAMETERS: 10 µM unless noted
About 83,000 compounds went through this panel and 20% of them were active in at least one assay; those are over-represented in the sample as a whole.
OBSERVED_PROPERTY: growth (%)
Give the value, in units of %, as a plain number.

stdin: State growth (M14 melanoma) of N=C(N)c1ccc(-c2ccc(-c3cc(Cl)cc(Cl)c3)s2)nc1 .
stdout: 79.5

stdin: Quote M14 melanoma growth for entry C=C(c1ccc(OC)c(/C=C/C(=O)c2ccc3c(c2)OCO3)c1)c1cc(OC)c(OC)c(OC)c1 .
stdout: 11.3

stdin: Provide measured growth on M14 melanoma for Cc1ccc(C=C2C(=O)NC(=O)NC2=O)cc1 please.
stdout: 101

stdin: Lab note: M14 melanoma assay, enter growth for Cc1ccc(S(=O)(=O)c2nc(-c3ccccc3)oc2Sc2nc3ccccc3s2)cc1 here
stdout: 13.4

stdin: Fetch value of growth on M14 melanoma for COc1cc(C(=O)n2nc(N3CCOCC3)c3cc(-n4cccc4)ccc32)cc(OC)c1OC .
stdout: 52.7

stdin: State recorded growth with M14 melanoma, entry C=C1CC[C@@H]2[C@](C)(COC(C)=O)[C@H](OC(C)=O)CC[C@@]2(C)[C@@H]1CC(Nc1ccc(S(=O)(=O)NC(C)=O)cc1)C1=CCOC1=O (stereo not given in full) , no comment.
stdout: -35.1

stdin: Print M14 melanoma growth for COc1cc(C(=O)c2c(-c3ccccc3)oc3c(OC)cccc23)cc(OC)c1OC .
stdout: 3.87

stdin: State growth on M14 melanoma. Entry: COC(=O)N1CC(Oc2ccccn2)C2CC1c1ccccc1O2 (stereo not given)
stdout: 102

stdin: Quote growth with test system M14 melanoma for NC1=Nc2cc(OCCCCN3Cc4ccccc4C3)c(OCC3CC3)cc2C12CCCC2
stdout: -89.7

stdin: Consider the molecule CCCCNC(=O)Oc1ccc(/C(=C(/C)Cc2ccc(OC)cc2)c2ccc(OCCN3CCCCCC3)cc2)cc1 tested on M14 melanoma; state its growth.
stdout: 91.1

====

# Test system: RPMI-8226 leukemia
# TEST: NCI-60 one-dose screen, 48 h (100 = growth as untreated, 0 = no growth, -100 = all killed)
# MEASUREMENT_PARAMETERS: 10 µM unless noted
About 83,000 compounds went through this panel and 20% of them were active in at least one assay; those are over-represented in the sample as a whole.
Exercise: for every item that follows, state its recorded growth.
# output: bare number, implied unit %

stdin: # assay system RPMI-8226 leukemia: give growth of C[C@H](C(=O)N(CCc1ccc(Cl)c(Cl)c1)Cc1cncs1)[C@@H]1CC[C@H](C[C@H](C)n2cc(CN3CCC(c4ccc(Cl)cc4)CC3)nn2)O1
stdout: 91.7

stdin: Look up and report growth, with RPMI-8226 leukemia as system, for Cn1cc(-c2nn3cc(-c4cccs4)nc3s2)c2cc(F)ccc21
stdout: 31.2

stdin: Return reported growth for target or system RPMI-8226 leukemia, item COc1ccc(N2CCC(=S)NC2=S)cc1 .
stdout: 103

stdin: Report growth on RPMI-8226 leukemia for this entry: CN1C(=O)/C(=C/c2ccc(C(=O)Nc3ncc(Cc4cccc(Cl)c4)s3)cc2)SC1=S
stdout: 60.8

stdin: Fill: growth (RPMI-8226 leukemia) for this compound CCN1CCN(CCNc2nccc(-c3c(-c4ccc(F)c(OC)c4)nc4sccn34)n2)S1(=O)=O
stdout: 68.7

stdin: Give growth only, for COC(=O)/C=C1/SC(=Nc2ccc([N+](=O)[O-])cc2)N(CCc2c[nH]c3ccc(O)cc23)C1=O , using RPMI-8226 leukemia data.
stdout: 8.49

stdin: With RPMI-8226 leukemia as the test system, provide measured growth for this compound: CN(C)CCN1C(=O)c2cccc3c(/C=C/CN4C(=O)c5cccc6cccc(c56)C4=O)ccc(c23)C1=O
stdout: -31.4

stdin: Specify growth for COc1ccc2c(c1)c(-c1nc(-c3c[nH]c4ncccc34)cs1)cn2CCCN1CCOCC1 , system RPMI-8226 leukemia.
stdout: 0.661

stdin: Report value only: growth, RPMI-8226 leukemia, CCN1CCN(CC(=O)Nc2nc3ccc(NCc4ccc(F)cc4)cc3s2)CC1
stdout: 77.3

====

# System: RPMI-8226 leukemia
# TEST: NCI-60 one-dose screen, 48 h
# MEASUREMENT_PARAMETERS: 10 µM unless noted
Compounds without any hit were thinned out: in the full panel of roughly 83,000, 20% have a hit. Activity calls are given as the source filed them. Rule for the calls: active = growth percent below 10; inactive = the rest.
Reply using exactly one outcome from active, inactive

stdin: Just curious, what result did COc1cccc(C(=O)NNc2nc(Cl)nc(Cl)n2)c1 get here?
stdout: inactive

stdin: Could you please tell me the result logged for CN(CCCNC(=O)CCOCCOCCOCCNC(=O)Cc1ccc2ccc3cccc4ccc1c2c34)CCCNc1cc(-c2ccc3ccccc3c2)nc2ccccc12 in this assay?
stdout: active

stdin: Give the logged outcome of this assay for the following compound: CN(CCCNC(=O)Cc1ccc2ccc3cccc4ccc1c2c34)CCCNc1cc(-c2ccc3ccccc3c2)nc2ccccc12
stdout: active

stdin: Hi, do you know how O=C(CCSc1nnc2n(Cc3ccccc3)c(=O)c3c4c(sc3n12)CCCC4)N1CCN(c2ccccc2)CC1 came out in this test?
stdout: inactive

stdin: Tell me the assay call for CC1CCN(C(=O)CCCl)c2ccccc21 (centres undefined) please.
stdout: inactive

stdin: Hello, I am checking results. What call was entered for CCCCCCCC/C=C\CCCCCCCCOc1ccc(CC(=O)NCC[N+]2(C)CCOCC2)cc1 ?
stdout: inactive

stdin: Just curious, what result did CC(=O)OC(c1ccccc1)C1CCOC1=O (centres undefined) get here?
stdout: inactive

stdin: Identify the outcome logged in this assay for the compound shown: O=S(=O)(Oc1ccc(Br)cc1)c1ccc(Cl)cc1
stdout: inactive

stdin: Could you check what this test reported for COc1ccc(Nc2ncccc2/C=C/C(=O)c2cc(OC)c(OC)c(OC)c2)cc1 ?
stdout: active

stdin: Lab log entry: COc1ccc(/C=C/C(=O)c2cc(OC)c(OC)c(OC)c2)cc1OCC(=O)Nc1nc2ccc(OC(F)(F)F)cc2s1 — outcome as called in the assay?
stdout: active

stdin: Outcome logged for O=C(NC(Cc1nnc2n(Cc3ccccc3)c(=O)c3c4c(sc3n12)CCCC4)c1ccccc1)c1ccccc1 (centres undefined) in this assay:
stdout: inactive

stdin: Hello, I am checking results. What call was entered for CCN1C(=O)N(CC)C2C1NN=c1s/c(=C3\C(=O)N(CC(C)C)c4ccccc43)c(=O)n12 (centres undefined) ?
stdout: inactive

stdin: Which outcome was entered for the compound O=C(Nc1ncccc1OCc1ccccc1)NC1CCCCCC1 in this test?
stdout: inactive

stdin: Recorded test outcome, item CN1CCN(Cc2ccc(NC(=O)c3cncc(C#Cc4cnc(N)c5ncccc45)c3)cc2C(F)(F)F)CC1
stdout: inactive

stdin: Per the assay record, what outcome was assigned to CO[C@H]1CC(=O)n2c3ccccc3c3c4c(c5c6ccccc6n1c5c32)C(=O)NC4=O ?
stdout: inactive

stdin: Given COc1ccc(Cn2cc(C(=O)N=Nc3c(O)[nH]c4c(C)cccc34)nn2)cc1 , state the outcome it received in this test.
stdout: inactive

stdin: Which result was noted for this compound in the test: S=C(c1ccc2c(c1)OCO2)N1CCN(c2cccc(Cl)c2)CC1
stdout: inactive

stdin: Please share the test call associated with CCN(CC)CCN1C(=O)c2c(c(C)c3c(oc4ccc(O)cc43)c2C)C1=O .
stdout: active

stdin: Recorded call for COc1cc(-c2nc3cc(Cl)c(Cl)cc3[nH]2)ccc1OCC(=O)N=Nc1c(O)[nH]c2ccc(Cl)cc12 ?
stdout: inactive
